Target: T1, recombinant cynomolgus monkey C5 (cynomolgus monkey, UniProt P01031 20-1676 (human entry), limits assumed)
T1 construct: also called cynoC5
T1 chain: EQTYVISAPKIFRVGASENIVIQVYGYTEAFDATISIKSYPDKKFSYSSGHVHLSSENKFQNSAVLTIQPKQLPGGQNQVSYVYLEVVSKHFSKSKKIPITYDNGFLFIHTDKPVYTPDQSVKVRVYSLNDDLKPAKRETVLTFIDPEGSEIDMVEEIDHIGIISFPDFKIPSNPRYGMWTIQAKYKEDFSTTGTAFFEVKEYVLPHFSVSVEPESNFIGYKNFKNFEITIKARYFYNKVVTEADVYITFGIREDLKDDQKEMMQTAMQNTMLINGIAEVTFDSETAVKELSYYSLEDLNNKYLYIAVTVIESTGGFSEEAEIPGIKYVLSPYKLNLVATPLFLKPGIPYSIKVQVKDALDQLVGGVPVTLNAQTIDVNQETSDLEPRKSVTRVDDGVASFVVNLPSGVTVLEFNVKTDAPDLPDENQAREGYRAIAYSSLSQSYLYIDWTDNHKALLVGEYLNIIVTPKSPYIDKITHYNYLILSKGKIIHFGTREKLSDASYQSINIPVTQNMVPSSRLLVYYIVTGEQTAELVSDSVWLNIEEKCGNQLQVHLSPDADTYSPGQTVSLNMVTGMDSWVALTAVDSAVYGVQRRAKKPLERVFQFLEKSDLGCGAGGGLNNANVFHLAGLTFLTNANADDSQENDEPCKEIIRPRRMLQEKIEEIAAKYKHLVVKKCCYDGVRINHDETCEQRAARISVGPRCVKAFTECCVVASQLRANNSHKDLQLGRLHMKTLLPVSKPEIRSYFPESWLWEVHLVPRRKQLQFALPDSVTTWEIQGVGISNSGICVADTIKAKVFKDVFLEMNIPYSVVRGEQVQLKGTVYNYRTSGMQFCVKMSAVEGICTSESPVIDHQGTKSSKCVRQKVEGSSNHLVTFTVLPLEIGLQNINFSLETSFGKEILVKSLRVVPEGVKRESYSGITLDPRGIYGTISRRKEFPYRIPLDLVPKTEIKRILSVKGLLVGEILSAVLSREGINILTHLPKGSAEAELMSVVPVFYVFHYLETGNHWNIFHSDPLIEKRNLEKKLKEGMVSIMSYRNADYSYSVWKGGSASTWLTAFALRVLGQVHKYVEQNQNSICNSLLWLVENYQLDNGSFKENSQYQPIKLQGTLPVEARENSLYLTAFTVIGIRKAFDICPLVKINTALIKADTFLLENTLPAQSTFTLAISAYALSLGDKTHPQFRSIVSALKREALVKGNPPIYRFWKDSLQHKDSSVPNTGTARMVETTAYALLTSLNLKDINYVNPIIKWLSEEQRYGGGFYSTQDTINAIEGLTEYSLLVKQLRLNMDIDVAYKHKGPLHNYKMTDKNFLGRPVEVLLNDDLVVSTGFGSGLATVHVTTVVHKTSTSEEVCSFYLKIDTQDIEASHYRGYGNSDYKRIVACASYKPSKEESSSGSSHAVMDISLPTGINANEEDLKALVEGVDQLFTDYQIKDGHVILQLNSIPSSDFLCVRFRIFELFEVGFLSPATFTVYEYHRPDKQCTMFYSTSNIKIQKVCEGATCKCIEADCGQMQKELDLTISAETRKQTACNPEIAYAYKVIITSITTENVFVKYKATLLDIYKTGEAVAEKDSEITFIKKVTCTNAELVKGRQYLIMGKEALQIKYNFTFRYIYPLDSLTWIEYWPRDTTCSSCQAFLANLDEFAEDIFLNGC
Test: SPR (Biacore), 37C, pH 7.4, Ab captured on ProA/G
EXPERIMENTAL_ENDPOINT: Kd (nM)
// note: answer is a bare numeric in nM

Dear colleague, I am looking for the recorded Kd of the following binder: CFA0599 (antibody, V domains shown, Chimeric, rabbit V regions; also called CFA0599-F760G4) VH: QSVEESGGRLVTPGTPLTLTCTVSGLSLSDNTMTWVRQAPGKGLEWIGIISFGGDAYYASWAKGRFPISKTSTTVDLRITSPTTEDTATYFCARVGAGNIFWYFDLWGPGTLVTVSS VL: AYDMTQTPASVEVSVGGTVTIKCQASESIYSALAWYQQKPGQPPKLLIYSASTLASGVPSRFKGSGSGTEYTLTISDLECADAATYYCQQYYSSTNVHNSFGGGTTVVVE 4.33

FYI, the data here is from patent US20180002415A1.
